Each recorded value in this set is attributed to ChEMBL document CHEMBL3352115.

# ASSAY_NAME: Half life in human liver microsomes
# Type: ADME
ASSAY_ENDPOINT: half-life

Request: I would be grateful if you could share the reported half-life for O=C(O)C[C@H]1CCc2c1[nH]c1ccc(OCc3ccc(C4CCCC4)c(C(F)(F)F)c3)cc21 [ETRASIMOD] .
Result: > 1 h

----------
# ASSAY_NAME: Volume of distribution at steady state in rat at 1 mg/kg, iv
# Type: ADME, organism-based
# Design: dose 1 mg/kg, route intravenous
# ASSAY_CONTEXT: in vivo, read-out: Vdss
ASSAY_ENDPOINT: Vd
# output: numeric value plus its unit

Request: I would be grateful if you could share the reported Vd for O=C(O)C[C@H]1CCc2c1[nH]c1ccc(OCc3ccc(C4CCCC4)c(C(F)(F)F)c3)cc21 [ETRASIMOD] .
Result: 1.61 L/kg

----------
# ASSAY_NAME: Drug level in Sprague-Dawley rat plasma at 14.5 ug/hr/kg dosed as constant infusion measured after 48 hrs
# Assay type: ADME, organism-based
# ASSAY_CONTEXT: iv
ASSAY_ENDPOINT: concentration at 48 h (nM)
Please reply with the bare figure in nM and do not write the unit itself.

Request: I would be grateful if you could share the reported concentration at 48 h for O=C(O)C[C@H]1CCc2c1[nH]c1ccc(OCc3ccc(C4CCCC4)c(C(F)(F)F)c3)cc21 [ETRASIMOD] .
Result: 110

----------
# TARGET_SYSTEM: Sphingosine 1-phosphate receptor 1 (Homo sapiens, UniProt P21453)
# Sequence (P21453 whole entry): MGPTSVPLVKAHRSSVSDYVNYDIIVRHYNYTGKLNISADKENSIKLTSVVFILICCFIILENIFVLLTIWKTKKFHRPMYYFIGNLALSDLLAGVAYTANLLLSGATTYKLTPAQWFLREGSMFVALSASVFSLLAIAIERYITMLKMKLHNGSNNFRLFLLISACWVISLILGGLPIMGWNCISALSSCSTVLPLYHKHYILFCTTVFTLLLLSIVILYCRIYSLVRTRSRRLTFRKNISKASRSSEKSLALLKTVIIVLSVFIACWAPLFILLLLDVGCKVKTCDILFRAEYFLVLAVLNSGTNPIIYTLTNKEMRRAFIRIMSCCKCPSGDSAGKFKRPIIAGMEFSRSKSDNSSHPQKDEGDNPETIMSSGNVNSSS
# ASSAY_NAME: Agonist activity at human S1P1 receptor assessed as cAMP accumulation by HTRF assay relative to S1P
# Assay type: functional
Can you tell me Emax for the items I'm about to list?
Please reply with the bare figure in % and do not write the unit itself.

Request: I would be grateful if you could share the reported Emax for O=C(O)CC1CCc2c1[nH]c1ccc(OCc3cc(C(F)(F)F)cc(C(F)(F)F)c3)cc21 (racemic) .
Result: 98

Request: Now give it for N#Cc1cc(COc2ccc3[nH]c4c(c3c2)CCC4CC(=O)O)ccc1C1CCCCC1 (racemic) too.
Result: 98

Request: Now give it for CC(C)Cc1ccc(COc2ccc3[nH]c4c(c3c2)CCC4CC(=O)O)cc1C(F)(F)F (racemic) too.
Result: 103

Request: Now give it for N#Cc1ccc(COc2ccc3[nH]c4c(c3c2)CCC4CC(=O)O)cc1C(F)(F)F (racemic) too.
Result: 104

Request: Now give it for O=C(O)CC1CCc2c1[nH]c1ccc(OCc3ccc(C4CCCC4)c(C(F)(F)F)c3)cc21 (racemic) too.
Result: 104

Request: Now give it for "O=C(O)C[C@@H]1CCc2c1[nH]c1ccc(OCc3ccc(C4CCCC4)c(C(F)(F)F)c3)cc21" too.
Result: 103

Request: Now give it for N#Cc1cc(COc2ccc3[nH]c4c(c3c2)CCC4CC(=O)O)ccc1OC(F)(F)F (racemic) too.
Result: 109

Request: Now give it for COc1ccc(COc2ccc3[nH]c4c(c3c2)CCC4CC(=O)O)cc1C#N (racemic) too.
Result: 136

Request: Now give it for O=C(O)CC1CCc2c1[nH]c1ccc(OCc3ccc(C4CC4)c(C(F)(F)F)c3)cc21 (racemic) too.
Result: 118
